Listing of entries alongside the reported growth.
test system: MDA-MB-468 breast; test: NCI-60 one-dose screen, 48 h (100 = growth as untreated, 0 = no growth, -100 = all killed); details: 10 µM
This is part of a sample that, as a whole, favours compounds with a hit. Of some 83,000 tested, about 20% had one in any assay.

- compound: "Cc1ccc(-c2cc(-c3cc4ccccc4nc3Cl)[nH]c(=S)n2)cc1"
  study-system: "MDA-MB-468 breast"
  growth / %: 11.7
- compound: "COc1ccc(NC(=O)CSc2nnc(-c3ccc4nc(-c5ccc(Cl)cc5)[nH]c4c3)o2)cc1"
  study-system: "MDA-MB-468 breast"
  growth / %: 90.8
- compound: "CCN1CCN(Cc2ccc(C(=O)Nc3cccc(-c4cn(-c5ccc6oc(=O)ccc6c5)nn4)c3)cc2C(F)(F)F)CC1"
  study-system: "MDA-MB-468 breast"
  growth / %: -82.4
- compound: "CC(=O)Oc1ccccc1C(=O)Oc1ccc(C(=O)/C=C/c2ccncc2)cc1"
  study-system: "MDA-MB-468 breast"
  growth / %: -59.3
- compound: "COc1cc(/C=C/C(=O)c2cc(OC)c(OC)c(OC)c2)ccc1Oc1nc(Nc2ccc(F)cc2)nc(N(C)C)n1"
  study-system: "MDA-MB-468 breast"
  growth / %: -39.6
- compound: "Cc1ccc(-c2ccc(SCC(=O)Nc3ccc(S(N)(=O)=O)cc3Br)nn2)cc1"
  study-system: "MDA-MB-468 breast"
  growth / %: -21.3
- compound: "O=C(COc1ccc(NC(=O)Nc2ccc(Cl)cc2)cc1)N=Nc1c(O)[nH]c2ccc([N+](=O)[O-])cc12"
  study-system: "MDA-MB-468 breast"
  growth / %: -54.6
- compound: "O=C(NO)c1ccc(CN2CCN(c3nc(-c4ccccc4)c4ccccc4n3)CC2)cc1"
  study-system: "MDA-MB-468 breast"
  growth / %: -14.2
- compound: "CCOc1ccc2ncc(C#Cc3cncc(C(=O)Nc4ccc(CN5CCN(C)CC5)c(C(F)(F)F)c4)c3)n2n1"
  study-system: "MDA-MB-468 breast"
  growth / %: -76.1
- compound: "COc1ccc(-c2ccc(/C=N/NC(=O)c3[nH]c4ccc(Br)cc4c3-c3ccccc3)o2)cc1"
  study-system: "MDA-MB-468 breast"
  growth / %: -2.91
- compound: "N#Cc1c(NC(=O)c2ccc(C(O)(C(F)(F)F)C(F)(F)F)cc2)sc2c1CCC(=O)C2"
  study-system: "MDA-MB-468 breast"
  growth / %: -90
- compound: "COc1ccc2nc(Nc3cccc(NC(=O)c4ccc(CN5CCN(C)CC5)c(C(F)(F)F)c4)c3)ccc2c1"
  study-system: "MDA-MB-468 breast"
  growth / %: -97.1
- compound: "O=C(c1ccc(O)cc1)C1[C@H](c2ccccc2Br)[C@@H](c2ccccc2)NC12C(=O)Nc1ccc(Br)cc12 (stereo partly specified)"
  study-system: "MDA-MB-468 breast"
  growth / %: -25.6
- compound: "Cc1ccc(/C=C/C(=O)c2ccc(S(=O)(=O)NCCNc3nc(Nc4ccc(F)cc4)nc(N(C)C)n3)cc2)cc1"
  study-system: "MDA-MB-468 breast"
  growth / %: -2.81
- compound: "O=C(CN1CCN(c2ncnc3c2cnn3-c2ccccc2)CC1)Nc1nncs1"
  study-system: "MDA-MB-468 breast"
  growth / %: -39.8
- compound: "COc1ccc(C(=O)/C=C/c2cc(F)cc(C(F)(F)F)c2)cc1S(N)(=O)=O"
  study-system: "MDA-MB-468 breast"
  growth / %: -93.2

Every entry's value here was drawn from PubChem BioAssay (NCI).
